Taken from patent US7022815.

- measured target: human PTH-2 receptor (human, UniProt P49190 25-550)
- Sequence (P49190 25-550): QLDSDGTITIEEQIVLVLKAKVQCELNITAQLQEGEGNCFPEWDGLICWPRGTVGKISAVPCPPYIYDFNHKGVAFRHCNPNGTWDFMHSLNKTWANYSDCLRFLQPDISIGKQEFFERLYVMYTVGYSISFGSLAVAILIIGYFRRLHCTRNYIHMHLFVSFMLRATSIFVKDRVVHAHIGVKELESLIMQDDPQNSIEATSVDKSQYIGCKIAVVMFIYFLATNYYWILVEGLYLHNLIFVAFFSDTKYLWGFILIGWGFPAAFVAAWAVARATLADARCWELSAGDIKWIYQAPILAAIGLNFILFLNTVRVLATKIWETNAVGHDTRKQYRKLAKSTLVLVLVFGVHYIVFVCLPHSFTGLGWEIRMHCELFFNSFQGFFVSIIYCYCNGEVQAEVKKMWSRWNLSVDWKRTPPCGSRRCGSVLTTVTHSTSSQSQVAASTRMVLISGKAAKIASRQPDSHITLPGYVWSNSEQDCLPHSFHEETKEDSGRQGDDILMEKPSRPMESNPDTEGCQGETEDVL
- assay comment: cell-based or functional assay
Non-standard residues stand in square brackets, D forms with d. No end group written: not given here. Nle = CCCC[C@H](N)C(=O)O
measurement name: cAMP Emax, LLC-P2R-22 cells (picomole/well)

| binder | units | test value |
| --- | --- | --- |
| AVAEIQLMHARAKH-NH2 [[A3, A10, R11, A12]rPTH(1-14)] | picomole/well | 292 |
| AVAEIQLMHARAKHLNSMERVEWLRKKLQDVHNY-NH2 (also called peptide #7; #7) [[A1, A3, A10, R11, A12, Y34]hPTH(1-34)] | picomole/well | 677 |
| AVAEIQLMHARA-NH2 [[A3, A10, R11, A12]rPTH(1-12)] | picomole/well | 501 |
| AVSEIQL[Nle]HNLGKHLASVER[Nle]QWLRKKLQDVHNY-NH2 [[Nle^8,21,Tyr^34]-rPTH(1-34)NH2] | picomole/well | 744 |
| AVAEIQLMHARAK-NH2 [[A3, A10, R11, A12]rPTH(1-13)] | picomole/well | 501 |
